Where these numbers come from: patent US11352359B2

# measured.target: PI3Kβ (Homo sapiens, UniProt P42338)
# Sequence (P42338 whole entry): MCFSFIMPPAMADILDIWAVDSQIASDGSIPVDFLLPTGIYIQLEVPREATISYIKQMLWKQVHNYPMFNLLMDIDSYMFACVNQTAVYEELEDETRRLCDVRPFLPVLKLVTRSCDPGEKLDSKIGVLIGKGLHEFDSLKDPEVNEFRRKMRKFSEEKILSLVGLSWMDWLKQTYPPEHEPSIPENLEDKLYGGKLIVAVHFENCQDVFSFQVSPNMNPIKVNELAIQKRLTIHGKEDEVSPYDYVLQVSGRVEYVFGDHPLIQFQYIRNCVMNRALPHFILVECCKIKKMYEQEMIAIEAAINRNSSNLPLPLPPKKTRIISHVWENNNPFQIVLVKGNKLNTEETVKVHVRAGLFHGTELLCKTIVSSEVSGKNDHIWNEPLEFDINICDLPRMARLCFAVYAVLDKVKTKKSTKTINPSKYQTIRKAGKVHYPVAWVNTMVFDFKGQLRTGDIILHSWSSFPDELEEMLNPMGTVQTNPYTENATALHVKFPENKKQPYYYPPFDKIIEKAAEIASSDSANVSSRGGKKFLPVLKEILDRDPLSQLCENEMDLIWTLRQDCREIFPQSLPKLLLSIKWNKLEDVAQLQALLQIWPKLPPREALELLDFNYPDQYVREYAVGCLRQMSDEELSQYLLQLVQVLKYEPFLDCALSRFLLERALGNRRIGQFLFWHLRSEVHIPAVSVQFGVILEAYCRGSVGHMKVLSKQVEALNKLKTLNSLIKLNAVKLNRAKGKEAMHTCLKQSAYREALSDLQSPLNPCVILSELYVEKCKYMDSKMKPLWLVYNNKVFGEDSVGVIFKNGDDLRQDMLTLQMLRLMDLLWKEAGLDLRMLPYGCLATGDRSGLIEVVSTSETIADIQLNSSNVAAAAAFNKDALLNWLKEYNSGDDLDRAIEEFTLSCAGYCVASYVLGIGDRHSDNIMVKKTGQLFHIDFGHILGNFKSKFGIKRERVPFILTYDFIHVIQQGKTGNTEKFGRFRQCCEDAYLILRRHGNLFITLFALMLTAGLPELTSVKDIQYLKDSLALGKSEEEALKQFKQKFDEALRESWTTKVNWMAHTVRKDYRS
# Sequence (P27986 whole entry partner): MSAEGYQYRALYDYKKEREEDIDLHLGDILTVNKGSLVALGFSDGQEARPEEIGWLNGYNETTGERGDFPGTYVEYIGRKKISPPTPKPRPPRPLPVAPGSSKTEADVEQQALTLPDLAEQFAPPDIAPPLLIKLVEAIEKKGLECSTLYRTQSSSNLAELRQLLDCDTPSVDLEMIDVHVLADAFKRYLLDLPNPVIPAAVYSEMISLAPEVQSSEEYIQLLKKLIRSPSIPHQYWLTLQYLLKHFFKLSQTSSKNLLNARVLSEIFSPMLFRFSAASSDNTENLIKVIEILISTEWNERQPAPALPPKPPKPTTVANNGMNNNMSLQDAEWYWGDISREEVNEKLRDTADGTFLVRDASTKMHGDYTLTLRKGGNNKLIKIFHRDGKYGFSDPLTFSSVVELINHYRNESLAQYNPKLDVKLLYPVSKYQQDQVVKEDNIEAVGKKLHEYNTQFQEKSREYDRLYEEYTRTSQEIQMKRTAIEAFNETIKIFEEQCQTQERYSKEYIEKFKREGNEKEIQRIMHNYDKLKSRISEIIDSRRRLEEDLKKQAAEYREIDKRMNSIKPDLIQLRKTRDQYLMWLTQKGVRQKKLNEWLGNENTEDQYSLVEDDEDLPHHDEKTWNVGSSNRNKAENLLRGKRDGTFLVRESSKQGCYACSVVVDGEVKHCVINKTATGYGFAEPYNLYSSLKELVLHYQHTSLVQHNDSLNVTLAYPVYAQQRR
# test.protocol: Fluorescent determination of PI3Kinase enzyme activity (HTRF), PI3Kβ
# Assay type: biochemical
property.name: inhibition at 1 µM

// solved cases for inhibition at 1 µM follow
| molecule | measured.target | inhibition at 1 µM |
| --- | --- | --- |
| Cc1n[nH]c2cc(-c3nn(C(C)c4cc5cccc(Cl)c5c(=O)n4-c4ccccc4)c4ncnc(N)c34)ccc12 (stereo not shown) | PI3Kβ (Homo sapiens, UniProt P42338) | 60 to 80% |
| C[C@H](c1cc2cccc(Cl)c2c(=O)n1-c1ccccc1)n1nc(-c2ccc(OC(F)F)c(F)c2)c2c(N)ncnc21 [Example 17b] | PI3Kβ (Homo sapiens, UniProt P42338) | 20 to 40% |
| CC(c1cc2cccc(Cl)c2c(=O)n1-c1ccccc1)n1nc(-c2ccc(O)c(F)c2)c2c(N)ncnc21 (stereo not shown) | PI3Kβ (Homo sapiens, UniProt P42338) | 60 to 80% |
| COc1ccc(-c2nn([C@H](C)c3cc4cccc(Cl)c4c(=O)n3-c3ccccc3)c3ncnc(N)c23)cc1NS(C)(=O)=O [Example 20b] | PI3Kβ (Homo sapiens, UniProt P42338) | 20 to 40% |
| C[C@H](c1cc2cccc(F)c2c(=O)n1-c1ccccc1)n1nc(-c2ccc(O)c(F)c2)c2c(N)ncnc21 [Example 15b] | PI3Kβ (Homo sapiens, UniProt P42338) | 0 to 10% |

Lab note: need inhibition at 1 µM for CC(C)Oc1ccc(-c2nn([C@@H](C)c3nc4ccccc4c(=O)n3-c3ccccc3)c3ncnc(N)c23)cc1F on PI3Kβ (Homo sapiens, UniProt P42338), anyone have it? 20 to 40%

Next molecule: CC(C)Oc1ccc(-c2nn(C(C)c3nc4ccc(F)cc4c(=O)n3-c3ccccc3)c3ncnc(N)c23)cc1F (stereo not shown) 20 to 40%

Next molecule: COc1ccc(-c2nn(C(C)c3cc4cccc(Cl)c4c(=O)n3-c3ccccc3)c3ncnc(N)c23)cc1NS(C)(=O)=O (stereo not shown) 20 to 40%

---

pIC50: −log10 of the molar value.
pIC50 data for PI3Kγ (Homo sapiens) follow.
property.name: pIC50

| compound | readout.value |
| --- | --- |
| C[C@@H](c1cc2cccc(F)c2c(=O)n1-c1ccccc1)n1nc(-c2ccc(O)c(F)c2)c2c(N)ncnc21 [Example 15a] | 7.28 |
| C[C@@H](c1cc2cccc(Cl)c2c(=O)n1-c1ccccc1)n1nc(-c2ccc(O)c(F)c2)c2c(N)ncnc21 [Example 14a] | 7.71 |
| C[C@@H](c1cc2ccccc2c(=O)n1-c1ccccc1)n1nc(-c2ccc(O)c(F)c2)c2c(N)ncnc21 | 7.24 |

A. C[C@H](c1cc2cccc(Cl)c2c(=O)n1-c1ccccc1)n1nc(-c2ccc(OC(F)F)c(F)c2)c2c(N)ncnc21 [Example 17b]
B. C[C@@H](c1nc2cccc(F)c2c(=O)n1-c1ccccc1)n1nc(-c2ccc(O)c(F)c2)c2c(N)ncnc21 [Example 16a]
C. CC(C)Oc1ccc(-c2nn([C@@H](C)c3nc4ccccc4c(=O)n3-c3ccccc3)c3ncnc(N)c23)cc1F
Rank the 3 compounds: largest pIC50 first, smallest last. Rank the items, then write their labels in that order. C, A, B

---

# measured.target: PI3Kδ (Homo sapiens, UniProt O00329)
# Sequence (O00329 whole entry): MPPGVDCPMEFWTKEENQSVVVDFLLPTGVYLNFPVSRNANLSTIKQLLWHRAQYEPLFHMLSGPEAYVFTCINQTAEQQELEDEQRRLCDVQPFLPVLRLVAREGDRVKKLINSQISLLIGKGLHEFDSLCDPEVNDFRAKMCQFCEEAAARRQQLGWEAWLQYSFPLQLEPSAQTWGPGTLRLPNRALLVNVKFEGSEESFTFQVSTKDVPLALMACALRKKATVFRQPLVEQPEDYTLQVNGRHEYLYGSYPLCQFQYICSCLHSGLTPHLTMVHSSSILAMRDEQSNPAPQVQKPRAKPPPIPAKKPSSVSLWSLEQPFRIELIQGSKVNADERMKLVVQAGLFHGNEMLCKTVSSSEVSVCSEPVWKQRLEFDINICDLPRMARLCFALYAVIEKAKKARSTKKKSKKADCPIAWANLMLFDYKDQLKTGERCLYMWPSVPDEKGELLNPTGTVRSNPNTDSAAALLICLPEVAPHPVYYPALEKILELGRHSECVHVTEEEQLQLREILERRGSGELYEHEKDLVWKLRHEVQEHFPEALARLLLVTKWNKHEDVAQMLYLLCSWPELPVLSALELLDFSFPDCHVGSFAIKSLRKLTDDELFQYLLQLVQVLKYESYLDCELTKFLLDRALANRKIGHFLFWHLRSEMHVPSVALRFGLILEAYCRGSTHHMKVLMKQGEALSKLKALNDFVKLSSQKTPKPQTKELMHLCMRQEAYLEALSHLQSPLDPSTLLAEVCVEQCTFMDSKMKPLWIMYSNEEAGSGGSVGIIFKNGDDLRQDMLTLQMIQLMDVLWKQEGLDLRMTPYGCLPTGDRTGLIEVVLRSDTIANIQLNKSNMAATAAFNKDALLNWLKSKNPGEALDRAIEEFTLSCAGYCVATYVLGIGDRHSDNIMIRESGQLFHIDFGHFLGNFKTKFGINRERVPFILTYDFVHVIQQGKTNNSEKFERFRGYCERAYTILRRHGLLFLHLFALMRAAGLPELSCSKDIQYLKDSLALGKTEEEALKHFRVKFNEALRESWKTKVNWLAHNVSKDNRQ
# Sequence (P27986 whole entry partner): as the sequence (P27986 whole entry partner) above
# test.protocol: Fluorescent determination of PI3Kinase enzyme activity (HTRF), PI3Kδ
# Format: biochemical
pIC50: −log10 of the molar value.
property.name: pIC50

| molecule | measured.target | pIC50 |
| --- | --- | --- |
| CC(C)Oc1ccc(-c2nn([C@@H](C)c3cc4ccccc4c(=O)n3-c3ccccc3)c3ncnc(N)c23)cc1F [Example 5a] | PI3Kδ (Homo sapiens, UniProt O00329) | 8.52 |
| C[C@@H](c1cc2cccc(Cl)c2c(=O)n1-c1ccccc1)n1nc(-c2ccc(O)c(F)c2)c2c(N)ncnc21 [Example 14a] | PI3Kδ (Homo sapiens, UniProt O00329) | 8.38 |
| C[C@@H](c1cc2cccc(F)c2c(=O)n1-c1ccccc1)n1nc(-c2ccc(O)c(F)c2)c2c(N)ncnc21 [Example 15a] | PI3Kδ (Homo sapiens, UniProt O00329) | 8.00 |

P. COc1ccc(-c2nn([C@@H](C)c3cc4ccccc4c(=O)n3-c3ccccc3)c3ncnc(N)c23)cc1NS(C)(=O)=O [Example 9a]
Q. C[C@H](c1cc2cccc(Cl)c2c(=O)n1-c1ccccc1)n1nc(-c2ccc(OC(F)F)c(F)c2)c2c(N)ncnc21 [Example 17b]
Pick one, P or Q : lowest reported pIC50. Give the label under which the chosen entry appears. Q

A. C[C@@H](c1nc2cccc(F)c2c(=O)n1-c1ccccc1)n1nc(-c2ccc(O)c(F)c2)c2c(N)ncnc21 [Example 16a]
B. COc1ccc(-c2nn([C@@H](C)c3cc4cccc(Cl)c4c(=O)n3-c3ccccc3)c3ncnc(N)c23)cc1NS(C)(=O)=O [Example 20a]
Pick one, A or B : lowest reported pIC50. Give the label under which the chosen entry appears. B
(B: 7.12, A: 7.48)

---

Structures can show the parent of a compound that is named as a salt.
Attribute: melting point

| molecule | melting point |
| --- | --- |
| CC(C)Oc1ccc(-c2nn([C@H](C)c3cc4ccccc4c(=O)n3-c3ccccc3)c3ncnc(N)c23)cc1F [Example 5b] | 232 to 235 °C |
| C[C@H](c1cc2ccccc2c(=O)n1-c1ccccc1)n1nc(-c2ccc(O)c(F)c2)c2c(N)ncnc21 [Example 7b] | 230 to 232 °C |
| CC(c1cc2cccc(Cl)c2c(=O)n1-c1ccccc1)n1nc(-c2ccc(OC(F)F)c(F)c2)c2c(N)ncnc21 (stereo not shown) (as salt: potassium) [Example 17] | 160 to 162 °C |

# context switch: different molecule, same melting point
Item under review: C[C@H](c1cc2cccc(Cl)c2c(=O)n1-c1ccccc1)n1nc(-c2ccc(O)c(F)c2)c2c(N)ncnc21 [Example 14b] . Reported melting point? 215 to 219 °C

---

Attribute: inhibition at 1 µM
# measured.target: PI3Kβ (Homo sapiens, UniProt P42338)
# test.protocol: Fluorescent determination of PI3Kinase enzyme activity (HTRF), PI3Kβ
# Format: biochemical

// solved cases for inhibition at 1 µM follow
| compound | inhibition at 1 µM |
| --- | --- |
| CC(C)Oc1ccc(-c2nn([C@H](C)c3cc4ccccc4c(=O)n3-c3ccccc3)c3ncnc(N)c23)cc1F [Example 5b] | 60 to 80% |
| CC(c1nc2ccc(F)cc2c(=O)n1-c1ccccc1)n1nc(-c2ccc(O)c(F)c2)c2c(N)ncnc21 (centres unmarked) [Example 13] | 10 to 20% |
| CC(C)Oc1ccc(-c2nn(C(C)c3cc4cccc(Cl)c4c(=O)n3-c3ccccc3)c3ncnc(N)c23)cc1F (centres unmarked) [Example 1] | 0 to 10% |
| COc1ccc(-c2nn([C@H](C)c3cc4ccccc4c(=O)n3-c3ccccc3)c3ncnc(N)c23)cc1NS(C)(=O)=O [Example 9b] | 10 to 20% |
| C[C@@H](c1cc2ccccc2c(=O)n1-c1ccccc1)n1nc(-c2ccc(O)c(F)c2)c2c(N)ncnc21 [Example 7a] | 20 to 40% |

Lab note: need inhibition at 1 µM for COc1ccc(-c2nn([C@@H](C)c3cc4ccccc4c(=O)n3-c3ccccc3)c3ncnc(N)c23)cc1NS(C)(=O)=O [Example 9a] on PI3Kβ (Homo sapiens, UniProt P42338), anyone have it? 20 to 40%

Next compound: CC(C)Oc1ccc(-c2nn(C(C)c3cc4cccc(F)c4c(=O)n3-c3ccccc3)c3ncnc(N)c23)cc1F (centres unmarked) [Example 2] 10 to 20%

Next compound: CC(C)Oc1ccc(-c2nn(C(C)c3nc4cccc(F)c4c(=O)n3-c3ccccc3)c3ncnc(N)c23)cc1F (centres unmarked) [Example 3] 10 to 20%

Next compound: C[C@@H](c1cc2cccc(Cl)c2c(=O)n1-c1ccccc1)n1nc(-c2ccc(OC(F)F)c(F)c2)c2c(N)ncnc21 [Example 17a] 0 to 10%

Next compound: CC(c1nc2cccc(F)c2c(=O)n1-c1ccccc1)n1nc(-c2ccc(O)c(F)c2)c2c(N)ncnc21 (centres unmarked) [Example 16] 60 to 80%

Next compound: C[C@H](c1cc2ccccc2c(=O)n1-c1ccccc1)n1nc(-c2ccc(O)c(F)c2)c2c(N)ncnc21 [Example 7b] 20 to 40%

Next compound: C[C@@H](c1cc2cccc(Cl)c2c(=O)n1-c1ccccc1)n1nc(-c2ccc(O)c(F)c2)c2c(N)ncnc21 [Example 14a] 10 to 20%

Next compound: CC(c1cc2ccccc2c(=O)n1-c1ccccc1)n1nc(-c2ccc(O)c(F)c2)c2c(N)ncnc21 (centres unmarked) [Example 7] 20 to 40%

---

# measured.target: PI3Kβ (Homo sapiens)
# test.protocol: Fluorescent determination of PI3Kinase enzyme activity (HTRF), PI3Kβ
# Type: biochemical
property.name: inhibition at 1 µM

| compound | measured.target | readout.value |
| --- | --- | --- |
| CC(C)Oc1ccc(-c2nn(C(C)c3nc4ccccc4c(=O)n3-c3ccccc3)c3ncnc(N)c23)cc1F (stereo not shown) [Example 6] | PI3Kβ (Homo sapiens) | 0 to 10% |
| Cc1n[nH]c2cc(-c3nn([C@H](C)c4cc5cccc(Cl)c5c(=O)n4-c4ccccc4)c4ncnc(N)c34)ccc12 [Example 21b] | PI3Kβ (Homo sapiens) | 10 to 20% |
| Cc1n[nH]c2cc(-c3nn([C@@H](C)c4cc5cccc(Cl)c5c(=O)n4-c4ccccc4)c4ncnc(N)c34)ccc12 [Example 21a] | PI3Kβ (Homo sapiens) | 0 to 10% |

Item under review: C[C@@H](c1nc2cccc(F)c2c(=O)n1-c1ccccc1)n1nc(-c2ccc(O)c(F)c2)c2c(N)ncnc21 [Example 16a] . Reported inhibition at 1 µM? 10 to 20%

Next compound: CC(c1cc2cccc(F)c2c(=O)n1-c1ccccc1)n1nc(-c2ccc(O)c(F)c2)c2c(N)ncnc21 (stereo not shown) [Example 15] 20 to 40%

Next compound: CC(c1cc2cccc(Cl)c2c(=O)n1-c1ccccc1)n1nc(-c2ccc(OC(F)F)c(F)c2)c2c(N)ncnc21 (stereo not shown) [Example 17] 40 to 60%

Next compound: CC(c1nc2ccccc2c(=O)n1-c1ccccc1)n1nc(-c2ccc(O)c(F)c2)c2c(N)ncnc21 (stereo not shown) [Example 8] 20 to 40%
